Assay: recombinant barcode read abundance after kanamycin selection (control-corrected) (log10(CPM+1)); higher = more efficient recombination; sequences stand for … in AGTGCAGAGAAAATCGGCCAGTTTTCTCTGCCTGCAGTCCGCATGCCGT…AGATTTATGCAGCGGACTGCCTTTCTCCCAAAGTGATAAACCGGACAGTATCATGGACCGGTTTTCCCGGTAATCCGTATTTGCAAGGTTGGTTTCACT; site = the 11-nt target
Rule: Criterion met for recombinant barcode read abundance (log10) not less than 0.9, Criterion not met for anything less.

query: # bool: recombinant barcode read abundance (log10) of GGGGCTTCTTGGGTTCTAACCTGTTGCAT (site GGGGCTTCTAT) >= 0.9
result: Criterion met

query: One more sequence: TCTGGGGCTTGGGTTCTAACCTGTTGCAG (site TCTGGGGCTCA)
result: Criterion not met

query: One more sequence: TCGATCCCTTGGGTTCTAACCTGTTGCCT (site TCAATCCCTAG)
result: Criterion not met

query: One more sequence: GAGTGCTCTTGGGTTCTAACCTGTTGCGT (site GAGTGCTCTAC)
result: Criterion met

query: One more sequence: CGCTGACCTTGGGTTCTAACCTGTTGCTT (site CGCTGGCCTAA)
result: Criterion not met

query: One more sequence: TAGGTGGCTTGGGTTCTAACCTGTTGCCT (site TAGGTGGCTAG)
result: Criterion not met

----------
Assay: recombinant UMI read abundance after kanamycin selection (control-corrected) (log10(CPM+1)); higher = more efficient recombination; extreme values may be limits of the assay; sequences stand for … in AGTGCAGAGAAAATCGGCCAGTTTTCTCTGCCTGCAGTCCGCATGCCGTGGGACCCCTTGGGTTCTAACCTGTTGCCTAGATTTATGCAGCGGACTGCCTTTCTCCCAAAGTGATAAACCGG…AGGTTGGTTTCACT; site = the 11-nt donor
Rule: rule met for recombinant UMI read abundance (log10) not less than 0.2, rule not met for anything less.

query: # bool: recombinant UMI read abundance (log10) of ACACATCCATGGACCGGTTTTCCCGGTAATCCGTATTTGAC (site ACAGATCCTGT) >= 0.2
result: rule not met

query: One more sequence: AGAGAGGCATGGACCGGTTTTCCCGGTAATCCGTATTTGCT (site AGAAAGGCTAG)
result: rule met

query: One more sequence: GTATGCACATGGACCGGTTTTCCCGGTAATCCGTATTTGTA (site TTATGCACTTA)
result: rule not met

query: One more sequence: TGCACACCATGGACCGGTTTTCCCGGTAATCCGTATTTGAC (site TGTACACCTGT)
result: rule not met

query: One more sequence: CGCTAATCATGGACCGGTTTTCCCGGTAATCCGTATTTGCT (site CGCTAATCTAG)
result: rule met

query: One more sequence: ATTGTAACATGGACCGGTTTTCCCGGTAATCCGTATTTGAG (site ATTGTAACTCT)
result: rule met

query: One more sequence: AGGACTGCATGGACCGGTTTTCCCGGTAATCCGTATTTGAG (site AGGACTGCTCT)
result: rule met

query: One more sequence: TAACTTACATGGACCGGTTTTCCCGGTAATCCGTATTTGAT (site TAACTTACTAT)
result: rule met

query: One more sequence: CAAGTCACATGGACCGGTTTTCCCGGTAATCCGTATTTGAG (site CAAGTCACTCG)
result: rule met

query: One more sequence: GTGCATGCATGGACCGGTTTTCCCGGTAATCCGTATTTGGC (site GTGCATGCTCC)
result: rule not met

query: One more sequence: ACCAGTGCATGGACCGGTTTTCCCGGTAATCCGTATTTGGT (site ACAAGTGCTAC)
result: rule not met

query: One more sequence: TGCTAAGCATGGACCGGTTTTCCCGGTAATCCGTATTTGGT (site TGCTATGCTAC)
result: rule not met

query: One more sequence: GAGCATGCATGGACCGGTTTTCCCGGTAATCCGTATTTGGT (site GTGCATGCTAC)
result: rule not met

----------
Test: recombinant UMI read abundance after kanamycin selection (control-corrected) (log10(CPM+1)); higher = more efficient recombination; extreme values may be limits of the assay; sequences stand for … in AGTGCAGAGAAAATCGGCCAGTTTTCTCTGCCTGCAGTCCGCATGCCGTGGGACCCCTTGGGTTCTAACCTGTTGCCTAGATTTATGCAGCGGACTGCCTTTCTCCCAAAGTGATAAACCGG…AGGTTGGTTTCACT; site = the 11-nt donor
PARAMETER MEASURED: recombinant UMI read abundance (log10)
Just the number.

query: Value lookup for recombinant UMI read abundance (log10); key = CAATTCCCATGGACCGGTTTTCCCGGTAATCCGTATTTGCA (site CAATTCCCTAG)
result: 0

query: One more sequence: AGTTTCGCATGGACCGGTTTTCCCGGTAATCCGTATTTGGT (site AGTTTCGCTAC)
result: 0.564

query: One more sequence: ACCAGTGCATGGACCGGTTTTCCCGGTAATCCGTATTTGGT (site ACCAGTGCTAC)
result: 0.472

query: One more sequence: AGCAATCCATGGACCGGTTTTCCCGGTAATCCGTATTTGAA (site AGCAATCCTTT)
result: 1.33

query: One more sequence: GCCACGCCATGGACCGGTTTTCCCGGTAATCCGTATTTGTA (site GTCACGCCTTA)
result: 0.00531

----------
Test: recombinant UMI read abundance after kanamycin selection (control-corrected) (log10(CPM+1)); higher = more efficient recombination; extreme values may be limits of the assay; sequences stand for … in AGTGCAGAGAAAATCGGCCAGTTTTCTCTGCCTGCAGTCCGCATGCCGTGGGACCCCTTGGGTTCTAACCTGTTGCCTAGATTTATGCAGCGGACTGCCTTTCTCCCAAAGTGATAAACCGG…AGGTTGGTTTCACT; site = the 11-nt donor
Consider the following sequences; for each one, report its recombinant UMI read abundance (log10).
Just the number.

query: Value lookup for recombinant UMI read abundance (log10); key = GGGAATCCATGGACCGGTTTTCCCGGTAATCCGTATTTGTT (site GGGAATCCTAA)
result: 0.192

query: One more sequence: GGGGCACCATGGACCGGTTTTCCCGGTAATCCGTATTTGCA (site GGAGCACCTTG)
result: 0

query: One more sequence: CCCGAGCCATGGACCGGTTTTCCCGGTAATCCGTATTTGCC (site CCCGAGCCTGG)
result: 0

query: One more sequence: TGGCCGCCATGGACCGGTTTTCCCGGTAATCCGTATTTGGC (site TGGCCGACTGC)
result: 0.0204

query: One more sequence: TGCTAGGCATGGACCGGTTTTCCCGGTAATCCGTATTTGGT (site TGCAAGGCTAC)
result: 0

query: One more sequence: AAGTTGTCATGGACCGGTTTTCCCGGTAATCCGTATTTGTC (site AAGTTGTCTGA)
result: 2.09

query: One more sequence: AGCAGTACATGGACCGGTTTTCCCGGTAATCCGTATTTGCG (site AGCAGTACTCG)
result: 1.25

query: One more sequence: ACAGTAGCATGGACCGGTTTTCCCGGTAATCCGTATTTGCG (site ACAGTATCTTG)
result: 0.736

query: One more sequence: CTAGTATCATGGACCGGTTTTCCCGGTAATCCGTATTTGTG (site CTAGTATCTGT)
result: 0

query: One more sequence: AGAAAGGCATGGACCGGTTTTCCCGGTAATCCGTATTTGCT (site AGATAGGCTAG)
result: 1.23

query: One more sequence: CCTAACGCATGGACCGGTTTTCCCGGTAATCCGTATTTGAT (site CCTAAGGCTAT)
result: 0

----------
Assay: recombinant UMI read abundance after kanamycin selection (control-corrected) (log10(CPM+1)); higher = more efficient recombination; extreme values may be limits of the assay; sequences stand for … in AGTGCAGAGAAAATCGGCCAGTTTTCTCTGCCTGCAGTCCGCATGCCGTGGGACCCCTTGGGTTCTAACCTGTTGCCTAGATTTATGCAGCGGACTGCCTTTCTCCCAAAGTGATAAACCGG…AGGTTGGTTTCACT; site = the 11-nt donor
Rule: YES for recombinant UMI read abundance (log10) not less than 0.04, NO for anything less.

query: # bool: recombinant UMI read abundance (log10) of AGGAAGACATGGACCGGTTTTCCCGGTAATCCGTATTTGCC (site AGGAAGACTTG) >= 0.04
result: YES

query: One more sequence: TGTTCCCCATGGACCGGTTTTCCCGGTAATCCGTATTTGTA (site TGTTCCCCTTG)
result: NO

query: One more sequence: GGTTAGACATGGACCGGTTTTCCCGGTAATCCGTATTTGCC (site GGCTAGACTGG)
result: YES

query: One more sequence: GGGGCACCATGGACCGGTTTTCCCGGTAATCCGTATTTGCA (site GGGGCACCTCG)
result: NO

query: One more sequence: AGGCCGACATGGACCGGTTTTCCCGGTAATCCGTATTTGCA (site AGGCCGACTTG)
result: YES

query: One more sequence: GGCAAACCATGGACCGGTTTTCCCGGTAATCCGTATTTGGT (site GGCAAACCTAC)
result: NO

query: One more sequence: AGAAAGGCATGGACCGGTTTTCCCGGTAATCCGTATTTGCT (site AGAAAGTCTAG)
result: NO

query: One more sequence: ACAGTATCATGGACCGGTTTTCCCGGTAATCCGTATTTGTA (site ACAGTATCTTT)
result: YES

query: One more sequence: TAAATGCCATGGACCGGTTTTCCCGGTAATCCGTATTTGGA (site TAAATGCCTTC)
result: YES

query: One more sequence: AGACTAACATGGACCGGTTTTCCCGGTAATCCGTATTTGCT (site AGACTAACTAG)
result: YES

query: One more sequence: TGTACACCATGGACCGGTTTTCCCGGTAATCCGTATTTGGC (site TGTACACCTGT)
result: NO

query: One more sequence: TCAGAGACATGGACCGGTTTTCCCGGTAATCCGTATTTGCC (site TCAGAGACTAG)
result: YES

query: One more sequence: CACCGTACATGGACCGGTTTTCCCGGTAATCCGTATTTGCT (site CTCCGTACTAG)
result: YES

query: One more sequence: TTTGCGGCATGGACCGGTTTTCCCGGTAATCCGTATTTGGT (site TTTGCGGCTAG)
result: NO

query: One more sequence: AGCCTAGCATGGACCGGTTTTCCCGGTAATCCGTATTTGTA (site AGCCTAGCTCA)
result: YES

query: One more sequence: CCTACTTCATGGACCGGTTTTCCCGGTAATCCGTATTTGAT (site CCTACTTCTAT)
result: NO
